tested on: murine neural precursor cells (neurosphere cultures); test: HTS of LOPAC library against secondary neurosphere cultures, MTT proliferation assay at 3 μM, day 7 (z score, P value); assay type: cell-based, mouse; settings: 168 h, 3 µM
Structures can show the parent of a compound that is named as a salt.

| molecule | Z Score |
| --- | --- |
| COc1cccc(OC)c1OCCNCC1CSc2ccccc2O1 (stereo not shown) [Benoxathian hydrochloride] | 0.2653 |
| C[N+](C)(C)CCC(=O)c1cccc2ccccc12.[I-] | −6.762 |
| O=C(NCCNCC(O)COc1ccc(O)cc1)N1CCOCC1 (stereo not shown) [Xamoterol hemifumarate] | −0.1243 |
| O=c1ccn([C@@H]2O[C@H](COP(=O)([O-])OP(=O)([O-])[O-])[C@@H](O)[C@H]2O)c(=O)[nH]1.[Na+].[Na+].[Na+] [Uridine 5′-diphosphate sodium] | 0.7074 |

----------
system: murine neural precursor cells (neurosphere cultures); experiment: HTS of LOPAC library against secondary neurosphere cultures, MTT proliferation assay at 3 μM, day 7 (z score, P value); format: cell-based, mouse; conditions: LOPAC library screen, 3 μM, MTT, secondary neurosphere cultures, day 7

| compound | assay target | Z Score |
| --- | --- | --- |
| CCCC1O[C@@H]2C[C@H]3[C@@H]4CCC5=CC(=O)C=C[C@]5(C)[C@H]4[C@@H](O)C[C@]3(C)[C@]2(C(=O)CO)O1 (stereo partly drawn) [Budesonide] | murine neural precursor cells (neurosphere cultures) | −1.994 |
| O=C(O)c1cccnc1Nc1cccc(C(F)(F)F)c1 [Niflumic acid] | murine neural precursor cells (neurosphere cultures) | −1.958 |
| CCN(CC)C(=O)N[C@H]1C[C@@H]2c3cccc4[nH]cc(c34)C[C@H]2N(C)C1 [R(+)-Terguride] | murine neural precursor cells (neurosphere cultures) | −2.004 |

----------
tested on: murine neural precursor cells (neurosphere cultures); assay: HTS of LOPAC library against secondary neurosphere cultures, MTT proliferation assay at 3 μM, day 7 (z score, P value); format: cell-based, mouse; conditions: 168 h, 3 µM
Counter-ions that a name gives are not always drawn.
This section presents molecules with their documented Z Score values.
readout type: Z Score

| molecule | assay target | readout type | numeric value |
| --- | --- | --- | --- |
| O=c1ccc2ccc(O)c(O)c2o1 [Daphnetin] | murine neural precursor cells (neurosphere cultures) | Z Score | −0.9798 |
| COc1ccccc1CNCCCCCCNCCCCCCCCNCCCCCCNCc1ccccc1OC [Methoctramine (31), Methoctramine, reference compound] | murine neural precursor cells (neurosphere cultures) | Z Score | −7.012 |
| Oc1cc(O)cc(/C=C/c2ccc(O)c(O)c2)c1 [Piceatannol] | murine neural precursor cells (neurosphere cultures) | Z Score | 0.5958 |
| O=C(/C=C/c1ccc(O)cc1)c1ccc(O)cc1O [Isoliquiritigenin] | murine neural precursor cells (neurosphere cultures) | Z Score | −2.817 |
| C=CC[C@H](N)C(=O)O [L-allylglycine] | murine neural precursor cells (neurosphere cultures) | Z Score | −1.155 |
| Cn1c(=O)c2c(nc(C=Cc3cccc(Cl)c3)n2C)n(C)c1=O [8-(3-Chlorostyryl)caffeine] | murine neural precursor cells (neurosphere cultures) | Z Score | −1.214 |
| CC(N)=O [Acetamide] | murine neural precursor cells (neurosphere cultures) | Z Score | −1.94 |
| OC[C@H]1O[C@@H](n2cnc3c(NC4CCCC4)ncnc32)[C@H](O)[C@@H]1O [N6-Cyclopentyladenosine] | murine neural precursor cells (neurosphere cultures) | Z Score | −0.7839 |
| OC[C@H]1NC[C@@H](O)[C@@H]1O [1,4-Dideoxy-1,4-imino-D-arabinitol] | murine neural precursor cells (neurosphere cultures) | Z Score | −0.008617 |
| CC1=C(/C=C/C(C)=C/C=C/C(C)=C/C=C/C=C(C)/C=C/C=C(C)/C=C/C2=C(C)C(=O)[C@@H](O)CC2(C)C)C(C)(C)C[C@H](O)C1=O [Astaxanthin] | murine neural precursor cells (neurosphere cultures) | Z Score | 1.571 |
| CC1CNCCN1S(=O)(=O)c1cccc2cnccc12.Cl.Cl (stereo not shown) | murine neural precursor cells (neurosphere cultures) | Z Score | 0.3352 |
| COc1ccc2c(c1)c(CC(=O)N1CCOCC1)c(C)n2C(=O)c1ccc(Cl)cc1 [Indomethacin morpholinylamide] | murine neural precursor cells (neurosphere cultures) | Z Score | −3.398 |
| O=C(O)c1cc([N+](=O)[O-])ccc1NCCCc1ccccc1 | murine neural precursor cells (neurosphere cultures) | Z Score | −0.7343 |
| N#Cc1c(-c2ccccc2)no[n+]1[O-] [4-Phenyl-3-furoxancarbonitrile] | murine neural precursor cells (neurosphere cultures) | Z Score | 0.9313 |
| C[C@@H](N)[C@H]1CC[C@H](C(=O)Nc2ccncc2)CC1 [Y-27632 dihydrochloride] | murine neural precursor cells (neurosphere cultures) | Z Score | −0.1255 |
| Cn1ccnc1 [1-Methylimidazole] | murine neural precursor cells (neurosphere cultures) | Z Score | −0.8469 |
| N[C@@H](CC(=O)O)C(=O)O [L-Aspartic acid] | murine neural precursor cells (neurosphere cultures) | Z Score | 0.1632 |
| CC1(C)CCC(NC(=O)[C@@H](N)CCC(=O)O)CC1 [CR 2249] | murine neural precursor cells (neurosphere cultures) | Z Score | −1.002 |
| Cn1c(=O)[nH]c2ncn(C)c2c1=O [1,7-Dimethylxanthine] | murine neural precursor cells (neurosphere cultures) | Z Score | −0.6623 |
| Nc1nc(Nc2ccccc2)nc2c1ncn2[C@@H]1O[C@H](CO)[C@@H](O)[C@H]1O [2-Phenylaminoadenosine] | murine neural precursor cells (neurosphere cultures) | Z Score | 0.5728 |
| CCCN(CCC)CCc1cccc2c1CC(=O)N2 [Ropinirole hydrochloride] | murine neural precursor cells (neurosphere cultures) | Z Score | −0.2552 |
| OCCN1CCN(CCCN2c3ccccc3Sc3ccc(C(F)(F)F)cc32)CC1 [Fluphenazine dihydrochloride] | murine neural precursor cells (neurosphere cultures) | Z Score | −10.2 |
| Cc1ccc(N(CC2=NCCN2)c2cccc(O)c2)cc1 [Phentolamine mesylate] | murine neural precursor cells (neurosphere cultures) | Z Score | −0.3191 |
| COC(=O)C(C)(N)Cc1ccc(O)cc1.Cl (racemic) | murine neural precursor cells (neurosphere cultures) | Z Score | 0.3703 |
| CNC(=O)c1cc2c(cn1)[nH]c1ccccc12 [N-Methyl-beta-carboline-3-carboxamide] | murine neural precursor cells (neurosphere cultures) | Z Score | 0.6988 |
| CCNC(=O)[C@H]1O[C@@H](n2cnc3c(N)nc(NCCc4ccc(CCC(=O)O)cc4)nc32)[C@H](O)[C@@H]1O [CGS-21680 hydrochloride] | murine neural precursor cells (neurosphere cultures) | Z Score | −1.225 |
| Nc1ccc(CCNc2ncnc3c2ncn3[C@@H]2O[C@H](CO)[C@@H](O)[C@H]2O)cc1 [N6-2-(4-Aminophenyl)ethyladenosine] | murine neural precursor cells (neurosphere cultures) | Z Score | −1.323 |
| CC1(C)CCC=[N+]1[O-] [5,5-Dimethyl-1-pyrroline-N-oxide] | murine neural precursor cells (neurosphere cultures) | Z Score | −1.666 |
